# Read-out: Insulin-like growth factor-binding protein 1 (IGFBP1), IGFBP1 (gene 3484)
# Procedure Text: LTEA_HepaRG_IGFBP1: Life Technologies and Expression Analysis (LTEA) Assay for Insulin-like growth factor-binding protein 1 (IGFBP1) using HepaRG (AID 2283508)
# Condition Summary: mRNA level, 48 h; actives raise or lower the signal
Active and inactive are the calls of the source. Rule for the calls: active = hit-call score of the fitted dose curve at least 0.9, where 1 is the maximum; inactive = score below 0.9.
Returns: one label drawn from t for active, f for inactive

Reference set, count: 5
>>> cat("CCCSP(=O)(OCC)Oc1ccc(Br)cc1Cl (stereo unspecified)")
"f"
>>> cat("CC(COc1ccc(Oc2ccccc2)cc1)Oc1ccccn1 (stereo unspecified)")
"f"
>>> cat("COP(=O)(OC)OC(Br)C(Cl)(Cl)Br (stereo unspecified)")
"f"
>>> cat("CCc1cccc(CC)c1N(COC)C(=O)CCl")
"t"
>>> cat("C#CCC1=C(C)C(OC(=O)C2C(C=C(C)C)C2(C)C)CC1=O (stereo unspecified)")
"f"

Prompt: Lab log entry: CCCCN(CC)c1c([N+](=O)[O-])cc(C(F)(F)F)cc1[N+](=O)[O-] — outcome as called in the assay?
Response: f

Prompt: Lab log entry: COc1cccc(C(=O)NN(C(=O)c2cc(C)cc(C)c2)C(C)(C)C)c1C — outcome as called in the assay?
Response: f

Prompt: Lab log entry: CSc1nnc(C(C)(C)C)c(=O)n1N — outcome as called in the assay?
Response: f

---

# Target Of Assay: Caspase-1 (Homo sapiens) (UniProt P29466)
# Sequence (P29466 whole entry, looked up): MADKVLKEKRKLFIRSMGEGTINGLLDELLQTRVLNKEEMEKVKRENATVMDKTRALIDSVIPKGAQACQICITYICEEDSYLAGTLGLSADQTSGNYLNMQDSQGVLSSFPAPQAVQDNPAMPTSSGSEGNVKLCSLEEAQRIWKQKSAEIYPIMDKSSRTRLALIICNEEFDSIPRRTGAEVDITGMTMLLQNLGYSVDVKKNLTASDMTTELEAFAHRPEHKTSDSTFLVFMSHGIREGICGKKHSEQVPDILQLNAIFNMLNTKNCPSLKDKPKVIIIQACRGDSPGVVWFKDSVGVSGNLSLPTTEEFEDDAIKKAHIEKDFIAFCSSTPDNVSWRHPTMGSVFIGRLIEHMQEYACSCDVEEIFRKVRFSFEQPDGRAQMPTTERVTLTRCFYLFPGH
# Procedure Text: NVS_ENZ_hCASP1: NovaScreen (NVS) Enzymatic Assay for human Caspase 1 (CASP1) (AID 2283132)
Records with an inconclusive call do not appear. The source made the active and inactive calls. The calls were made as follows: active = hit-call score of the fitted dose curve at least 0.9, where 1 is the maximum; inconclusive = response in the unintended direction; inactive = score below 0.9.
Returns: one label drawn from yes (1) for active, no (0) for inactive

>>> cat("S=C1NCCN1")
"no (0)"

Prompt: Lab log entry: Cc1cc(C2CC2)nc(Nc2ccccc2)n1 — outcome as called in the assay?
Response: no (0)

Prompt: Lab log entry: CSc1nc(NC(C)C)nc(NC(C)C)n1 — outcome as called in the assay?
Response: no (0)

Prompt: Lab log entry: CC(C)[C@H](C(=O)O[C@H](C#N)c1cccc(Oc2ccccc2)c1)c1ccc(Cl)cc1 — outcome as called in the assay?
Response: no (0)

Prompt: Lab log entry: CN(C)[C@@H]1C(=O)C(C(N)=O)=C(O)[C@@]2(O)C(=O)C3=C(O)c4c(O)cccc4[C@@](C)(O)[C@H]3[C@H](O)[C@@H]12 — outcome as called in the assay?
Response: yes (1)

---

# Target Of Assay: Estrogen receptor (Homo sapiens)
# Procedure Text: OT_ERa_GFPERaERE_0120: Odyssey Thera (OT) 2-hour HeLa Transcription Induction Assay for Estrogen Receptor (AID 2283382)
# Method: OT_ERa_GFPERaERE_0120 is a cell-based, single-readout assay that uses HeLa, a human cervix cell line, with measurements taken at 2 hours after chemical dosing in a 384-well plate.OT_ERa_GFPERaERE_0120 is one of one assay component(s) measured or calculated from the OT_ERa_GFPERaERE_0120 assay. […] This assay endpoint, OT_ERa_EREGFP_0120, was analyzed in the positive analysis fitting direction relative to DMSO as the negative control and baseline of activity. […]
Activity calls are given as the source filed them. How the source made its calls: active means hit-call score of the fitted dose curve at least 0.9, where 1 is the maximum; inconclusive means response in the unintended direction; inactive means score below 0.9.
Returns: one label drawn from yes = active, no = inactive

>>> cat("Nc1c(Cl)cc([N+](=O)[O-])cc1Cl")
"no"

Prompt: Lab log entry: CCc1cccc(CC)c1N(COC)C(=O)CCl — outcome as called in the assay?
Response: no

Prompt: Lab log entry: O=[N+]([O-])c1cc(C(F)(F)F)c(Cl)c([N+](=O)[O-])c1Nc1ncc(C(F)(F)F)cc1Cl — outcome as called in the assay?
Response: yes

Prompt: Lab log entry: CCCCOC(=O)[C@@H](C)Oc1ccc(Oc2ccc(C#N)cc2F)cc1 — outcome as called in the assay?
Response: no

Prompt: Lab log entry: CNC(=O)ON=C(SC)C(=O)N(C)C — outcome as called in the assay?
Response: no

---

# Read-out: Cytochrome P450 3A4 (Homo sapiens)
# Procedure Text: CLD_CYP3A4_24hr: CellzDirect (CLD) Gene Expression Assay for xenobiotic metabolism (CYP3A4) at 24 hours (AID 2283689)
Results filed as inconclusive are left out. Calls of active or inactive are those of the source. Rule for the calls: active = hit-call score of the fitted dose curve at least 0.9, where 1 is the maximum; inconclusive = response in the unintended direction; inactive = score below 0.9.
Returns: one label drawn from active, inactive

Reference set, count: 6
>>> cat("CCOP(=O)(OCC)Oc1cc(C)nc(C(C)C)n1")
"inactive"
>>> cat("CC(C)[C@H](C(=O)O[C@H](C#N)c1cccc(Oc2ccccc2)c1)c1ccc(Cl)cc1")
"inactive"
>>> cat("CC(COc1ccc(Oc2ccccc2)cc1)Oc1ccccn1 (configuration not stated)")
"active"
>>> cat("CC1(C(=O)Nc2ccc(O)c(Cl)c2Cl)CCCCC1")
"inactive"
>>> cat("CCCOCC(=Nc1ccc(Cl)cc1C(F)(F)F)n1ccnc1")
"active"
>>> cat("CCCCSP(=O)(SCCCC)SCCCC")
"active"

Prompt: Lab log entry: CCCCOC(=O)[C@@H](C)Oc1ccc(Oc2ccc(C#N)cc2F)cc1 — outcome as called in the assay?
Response: inactive

Prompt: Lab log entry: CNC(=O)Oc1cccc2c1OC(C)(C)O2 — outcome as called in the assay?
Response: active

Prompt: Lab log entry: N#CSCSC#N — outcome as called in the assay?
Response: inactive

---

# Procedure Text: ATG_Sox_CIS: Attagene CIS-FACTORIAL HepG2 Assay for human SRY-box transcription factor (SOX) (AID 2282960)
# Condition Summary: HepG2 Attagene cis-factorial SOX reporter, mRNA; actives raise or lower the signal
Calls of active or inactive are those of the source. Rule for the calls: active = hit-call score of the fitted dose curve at least 0.9, where 1 is the maximum; inactive = score below 0.9.
Returns: one label drawn from True for active, False for inactive

Reference set, count: 5
>>> cat("CCCCSP(=O)(SCCCC)SCCCC")
"True"
>>> cat("CSc1nnc(C(C)(C)C)c(=O)n1N")
"False"
>>> cat("C#CCC1=C(C)C(OC(=O)C2C(C=C(C)C)C2(C)C)CC1=O (configuration not stated)")
"True"
>>> cat("CCC(CC)Nc1c([N+](=O)[O-])cc(C)c(C)c1[N+](=O)[O-]")
"False"
>>> cat("CC1(C(=O)Nc2ccc(O)c(Cl)c2Cl)CCCCC1")
"False"

Prompt: Lab log entry: CCc1cnc(C2=NC(C)(C(C)C)C(=O)N2)c(C(=O)O)c1 (configuration not stated) — outcome as called in the assay?
Response: False

Prompt: Lab log entry: CC(Oc1cccc(Cl)c1)C(=O)O (configuration not stated) — outcome as called in the assay?
Response: False

Prompt: Lab log entry: Cc1ccn2nc(S(=O)(=O)Nc3c(F)cccc3F)nc2n1 — outcome as called in the assay?
Response: False

---

# Procedure Text: CCTE_Mundy_HCI_iCellGluta_NOG_NeuriteCount: CCTE's Neurite Outgrowth Assay in iCellGluta cells for Neurite Count, Mundy Lab (AID 2284342);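 note: chemical exposure about 48 hours starting 2 hours after plating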
# Procedure: CCTE_Mundy_HCI_iCellGluta_NOG is a multiplexed, cell-based-readout assay that uses iCell GlutaNeurons from FUJIFILM Cellular Dynamics, Inc. (FCDI), human glutamatergic enriched neurons derived from induced pluripotent stem (iPS) cells, with measurements taken at 50.33 hours after chemical dosing in a microplate: 96-well plate.CCTE_Mundy_HCI_iCellGluta_NOG_NeuriteCount is one of four components of the CCTE_Mundy_HCI_iCellGluta_NOG assay. […]
Results filed as inconclusive are left out. The source made the active and inactive calls. The calls were made as follows: active = hit-call score of the fitted dose curve at least 0.9, where 1 is the maximum; inconclusive = response in the unintended direction; inactive = score below 0.9.
Returns: one label drawn from Y for active, N for inactive

Reference set, count: 5
>>> cat("CCCSP(=O)(OCC)SCCC")
"N"
>>> cat("CON=C(C(=O)OC)c1ccccc1CON=C(C)c1cccc(C(F)(F)F)c1")
"Y"
>>> cat("CCOP(=O)(NC(C)C)Oc1ccc(SC)c(C)c1 (stereo not given)")
"N"
>>> cat("CN1COCN(Cc2cnc(Cl)s2)C1=N[N+](=O)[O-]")
"N"
>>> cat("CCOP(=O)(OCC)Oc1cc(C)nc(C(C)C)n1")
"N"

Prompt: Lab log entry: COP(=O)(NC(C)=O)SC (stereo not given) — outcome as called in the assay?
Response: N

---

# Read-out: Interleukin-8 (IL8), CXCL8 (gene 3576)
# Procedure Text: BSK_hDFCGF_IL8: BioMAP Diversity Plus: hDFCGF Assay for Interleukin-8 (IL8) Biomarker Activity (AID 2283058)
# Condition Summary: primary human foreskin fibroblasts; actives raise or lower the signal
Calls of active or inactive are those of the source. The calls were made as follows: active = hit-call score of the fitted dose curve at least 0.9, where 1 is the maximum; inactive = score below 0.9.
Returns: one label drawn from active, inactive

Reference set, count: 5
>>> cat("CNc1cnn(-c2cccc(C(F)(F)F)c2)c(=O)c1Cl")
"inactive"
>>> cat("CC1(C(=O)Nc2ccc(O)c(Cl)c2Cl)CCCCC1")
"inactive"
>>> cat("CCCCOC(=O)c1ccccc1C(=O)O")
"inactive"
>>> cat("CCOP(=O)(SC(C)CC)N1CCSC1=O (stereo not drawn)")
"inactive"
>>> cat("CCCCN(CC)c1c([N+](=O)[O-])cc(C(F)(F)F)cc1[N+](=O)[O-]")
"inactive"

Prompt: Lab log entry: CCOP(=O)(NC(C)C)Oc1ccc(SC)c(C)c1 (stereo not drawn) — outcome as called in the assay?
Response: inactive

Prompt: Lab log entry: CCC(CC)Nc1c([N+](=O)[O-])cc(C)c(C)c1[N+](=O)[O-] — outcome as called in the assay?
Response: inactive
